# experiment-summary: Prodrug in vivo pharmacokinetics in monkeys (plasma, LC-MS-MS)
# Set-up: species or system Monkey (Cynomolgus)
# condition-details: Cynomolgus, cynomolgus monkey, plasma, po, 3 mg/kg, Example 71 in monkey plasma after oral Example 71 (3 mg/kg active); Monkey 1
experimental-endpoint: Cmax (ng/mL)
Lab book: enter the figure in ng/mL, no units written.

Incoming: Note down Cmax recorded for `Cl.N[C@H]1Cc2cc(Oc3ccccc3)ccc2N(O)C1=O`
Outgoing: 44

====

# experiment-summary: Prodrug in vivo pharmacokinetics in monkeys (plasma, LC-MS-MS)
# Parameters: species or system Monkey (Cynomolgus)
# condition-details: Cynomolgus, cynomolgus monkey, plasma, po, 10 mg/kg, Example 4 in monkey plasma after oral Example 4 (10 mg/kg active); Monkey 3
experimental-endpoint: Cmax (ng/mL)
Lab book: enter the figure in ng/mL, no units written.

Incoming: Note down Cmax recorded for N[C@H]1Cc2ccccc2N(O)C1=O [Example 4]
Outgoing: 206
